Form field: inhibition at 10 µM (one value per entry).
Tested on: SARS-CoV-2
Experiment: Antiviral activity against SARS-CoV-2 infected in African green monkey Vero E6 cells assessed as inhibition of viral infection at 10 uM incubated for 1 hrs followed by compound washout and measured after 24 hrs by crystal violet staining based plaque assay relative to control
Type: functional
Settings: Severe acute respiratory syndrome coronavirus 2, Vero C1008
State the answer as a number, implicitly in %.

For orientation, consider the following solved cases.
O=C1c2cc(N3CCOCC3)c(Cc3ccccc3)nc2C(c2ccoc2)N1CC1CCCO1 (centres undefined)
9.4
O=C1c2cc(N3CCOCC3)c(Cc3ccc(O)cc3)nc2C(c2ccco2)N1Cc1ccco1 (centres undefined)
77
O=C1c2cc(N3CCOCC3)c(Cc3ccccc3)nc2C(C2CCCO2)N1Cc1ccco1 (centres undefined)
31.9

Attention now turns to another entry.
Data request: Report inhibition at 10 µM for O=C1c2cc(N3CCOCC3)c(Cc3ccccc3)nc2C(c2ccco2)N1Cc1ccco1 (centres undefined) please.
Data returned: 19.4

These measurements were taken from ChEMBL document CHEMBL5230165.
